System: Staphylococcus aureus subsp. aureus (ATCC29213)
Experiment: MIC, broth microdilution (CLSI), Staphylococcus aureus subsp. aureus ATCC29213
Assay type: cell-based
Settings: ATCC29213, Table 15, read-out: S. aureus ("wound") (MIC)
What log10 MIC was measured for each of the following?
Scale: log10; quantity: MIC; unit before log: µg/mL

Query: Which value of log10 MIC has been reported for Cl.Cl.NCCN(CCN)CCN1CCC(Nc2cc(C(F)(F)F)cc3c2Nc2ccc(Br)cc2S3)CC1 in the records?
Result: 0.60

Query: Which value of log10 MIC has been reported for Cl.NCCNCCCNc1cc(C(F)(F)F)cc2c1Nc1cc(Br)ccc1S2 in the records?
Result: 0.60

Query: Which value of log10 MIC has been reported for NC1CCCC(C(=O)Nc2cc(C(F)(F)F)cc3c2Nc2ccc(N4CCNCC4)cc2S3)C1 (stereo not shown) in the records?
Result: 1.20

Query: Which value of log10 MIC has been reported for Cl.Cl.NCCN1CCC(Nc2cc(C(=O)N3CCCC3)cc3c2Nc2ccccc2S3)CC1 in the records?
Result: 2.11

Query: Which value of log10 MIC has been reported for Cl.Cl.NCCN(CCN)CCN1CCC(Nc2cc(C(F)(F)F)cc3c2Nc2ccc(N4CCCC4)cc2S3)CC1 in the records?
Result: 0.60

Query: Which value of log10 MIC has been reported for Cl.NCCN1CCC(Nc2cc(C(F)(F)F)cc3c2Nc2ccc(N4CCC5CCCC54)cc2S3)CC1 (stereo not shown) in the records?
Result: 0.60

Query: Which value of log10 MIC has been reported for Cl.NCCNCCCNc1cc(C(F)(F)F)cc2c1Nc1ccc(N3CC4(CCC4)C3)cc1S2 in the records?
Result: 0.60

Query: Which value of log10 MIC has been reported for Cl.Cl.Cl.NCCCN1c2ccc(Br)cc2Sc2cc(N3CCN(CCN)CC3)ccc21 in the records?
Result: 1.51

Query: Which value of log10 MIC has been reported for Cl.FC(F)(F)c1cc(NC2CCN(CCN3CCNCC3)CC2)c2c(c1)Sc1cc(Br)ccc1N2 in the records?
Result: 0.90

Query: Which value of log10 MIC has been reported for Cl.Cl.NCCN1CCC(Nc2cc(C(F)(F)F)cc3c2Nc2ccc(N4CCCC4)cc2S3)CC1 in the records?
Result: 0.30

Query: Which value of log10 MIC has been reported for Cl.NC1CCCC(CNc2cc(C(F)(F)F)cc3c2Nc2ccc(Br)cc2S3)C1 (stereo not shown) in the records?
Result: 1.20

Query: Which value of log10 MIC has been reported for CCN(C)c1ccc2c(c1)Sc1cc(C(F)(F)F)cc(NCCCNCCN)c1N2.Cl.Cl in the records?
Result: 0.60

Query: Which value of log10 MIC has been reported for Cl.Cl.NCCN1CCC(Nc2cc(C(=O)NNc3ccccc3)cc3c2Nc2ccccc2S3)CC1 in the records?
Result: 1.51

Query: Which value of log10 MIC has been reported for Cl.FC(F)(F)c1cc(NC2CCN(CCN3CCNCC3)CC2)c2c(c1)Sc1cc(N3CCCC3)ccc1N2 in the records?
Result: 2.11

Query: Which value of log10 MIC has been reported for FC(F)(F)c1cc(NC2CCNCC2)c2c(c1)Sc1ccccc1N2 in the records?
Result: 0.78

Query: Which value of log10 MIC has been reported for COC1CCCN(c2ccc3c(c2)Sc2cc(C(F)(F)F)cc(NC4CCN(CCN)CC4)c2N3)C1.Cl (stereo not shown) in the records?
Result: 0.90
